target: BChE (Homo sapiens, UniProt P06276); experiment: 2D-QSAR (BMLR, CODESSA-Pro) model, BChE inhibitors; conditions: observed minus estimated IC50
Sequence (P06276 29-602): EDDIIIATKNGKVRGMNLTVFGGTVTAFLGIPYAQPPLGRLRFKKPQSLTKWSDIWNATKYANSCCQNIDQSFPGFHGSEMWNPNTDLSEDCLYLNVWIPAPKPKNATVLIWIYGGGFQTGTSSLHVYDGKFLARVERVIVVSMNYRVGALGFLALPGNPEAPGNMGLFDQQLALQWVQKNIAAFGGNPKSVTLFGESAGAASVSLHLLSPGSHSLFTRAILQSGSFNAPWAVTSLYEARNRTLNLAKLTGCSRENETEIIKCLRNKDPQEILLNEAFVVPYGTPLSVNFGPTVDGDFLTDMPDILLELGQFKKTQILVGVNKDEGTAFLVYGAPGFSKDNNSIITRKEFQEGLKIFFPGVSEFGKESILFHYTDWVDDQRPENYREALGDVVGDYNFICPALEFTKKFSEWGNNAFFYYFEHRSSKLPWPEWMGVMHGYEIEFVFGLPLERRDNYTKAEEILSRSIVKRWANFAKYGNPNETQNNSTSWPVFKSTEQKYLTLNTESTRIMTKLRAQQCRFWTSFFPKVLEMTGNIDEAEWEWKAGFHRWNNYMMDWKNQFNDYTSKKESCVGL
QUANTITY_MEASURED: Error (difference between observed and estimated property values), BChE BMLR-QSAR model (µM)

[
  {
    "COMPOUND": "COc1ccc2c(c1)C1(C(=O)N2)N(C)CC(c2ccccc2)C12CC(=O)N(c1ccccc1)C2=O (stereo not drawn)",
    "MEASURED_VALUE": 7.44
  },
  {
    "COMPOUND": "CN1CC(c2ccccc2)C2(CC(=O)N(c3ccc(Cl)cc3)C2=O)C12C(=O)Nc1ccccc12 (stereo not drawn)",
    "MEASURED_VALUE": -0.81
  },
  {
    "COMPOUND": "COc1ccc2c(c1)C1(C(=O)N2)N(C)CC(c2ccc(Cl)cc2)C12CC(=O)N(c1ccccc1)C2=O (stereo not drawn)",
    "MEASURED_VALUE": 0.86
  },
  {
    "COMPOUND": "CN1CC(c2ccccc2)C2(CC(=O)N(c3ccccc3)C2=O)C12C(=O)Nc1ccc(Cl)cc12 (stereo not drawn)",
    "MEASURED_VALUE": -6.64
  },
  {
    "COMPOUND": "COc1ccc(C2CN(C)C3(C(=O)Nc4ccc(OC)cc43)C23CC(=O)N(c2ccccc2)C3=O)cc1 (stereo not drawn)",
    "MEASURED_VALUE": -0.65
  },
  {
    "COMPOUND": "CN1CC(c2ccc(Cl)cc2)C2(CC(=O)N(c3ccccc3)C2=O)C12C(=O)Nc1ccc(Cl)cc12 (stereo not drawn)",
    "MEASURED_VALUE": -5.91
  },
  {
    "COMPOUND": "CN1CC(c2ccc(Cl)cc2)C2(CC(=O)N(c3ccc(Cl)cc3)C2=O)C12C(=O)Nc1ccccc12 (stereo not drawn)",
    "MEASURED_VALUE": 1.51
  },
  {
    "COMPOUND": "COc1ccc2c(c1)C1(C(=O)N2)N(C)CC(c2ccc(Cl)cc2)C12CC(=O)N(c1ccc(Cl)cc1)C2=O (stereo not drawn)",
    "MEASURED_VALUE": -0.71
  },
  {
    "COMPOUND": "CN1CC(c2ccccc2)C2(CC(=O)N(c3ccccc3)C2=O)C12C(=O)Nc1ccccc12 (stereo not drawn)",
    "MEASURED_VALUE": 12.80
  },
  {
    "COMPOUND": "CN1CC(c2ccc(Cl)cc2)C2(CC(=O)N(c3ccc(Cl)cc3)C2=O)C12C(=O)Nc1ccc(Cl)cc12 (stereo not drawn)",
    "MEASURED_VALUE": 1.09
  },
  {
    "COMPOUND": "COc1ccc(C2CN(C)C3(C(=O)Nc4ccc(Cl)cc43)C23CC(=O)N(c2ccccc2)C3=O)cc1 (stereo not drawn)",
    "MEASURED_VALUE": 1.88
  },
  {
    "COMPOUND": "CN1CC(c2ccccc2)C2(CC(=O)N(c3ccc(Cl)cc3)C2=O)C12C(=O)Nc1ccc(Cl)cc12 (stereo not drawn)",
    "MEASURED_VALUE": -3.48
  }
]

---

Target: BChE (Homo sapiens, UniProt P06276)
Assay: biochemical
Conditions: selectivity index BChE/AChE
Method: Butyrylthiocholine iodide and acetylthiocholine were utilized as substrates in BChE and AChE assays, respectively, where DTNB was served as indicator. All compounds were dissolved in MeOH. […] Blank assays were performed by replacing the enzyme (20 μL) with buffer and their absorbances were recorded for correction of the spontaneous lysis of the indicator or inherent color of the inhibitor. […]
Consider the cut-off 0.8. If the recorded SI(BChE/AChE) is strictly smaller, the label is 1 (yes); if not, the label is 0 (no).

[
  {
    "COMPOUND": "COc1ccc(C2CN(C)C3(C(=O)Nc4ccc(Cl)cc43)C23CC(=O)N(c2ccccc2)C3=O)cc1 (centres unmarked) [Compound 8f]",
    "CATEGORY_LABEL": "0 (no)"
  },
  {
    "COMPOUND": "CN1CC(c2ccccc2)C2(CC(=O)N(c3ccc(Cl)cc3)C2=O)C12C(=O)Nc1ccc(Cl)cc12 (centres unmarked) [Compound 8i]",
    "CATEGORY_LABEL": "0 (no)"
  },
  {
    "COMPOUND": "CN1CC(c2ccc(Cl)cc2)C2(CC(=O)N(c3ccc(Cl)cc3)C2=O)C12C(=O)Nc1ccc(Cl)cc12 (centres unmarked) [Compound 8k]",
    "CATEGORY_LABEL": "1 (yes)"
  },
  {
    "COMPOUND": "CN1CC(c2ccccc2)C2(CC(=O)N(c3ccc(Cl)cc3)C2=O)C12C(=O)Nc1ccccc12 (centres unmarked) [Compound 8h]",
    "CATEGORY_LABEL": "0 (no)"
  },
  {
    "COMPOUND": "CN1CC(c2ccccc2)C2(CC(=O)N(c3ccccc3)C2=O)C12C(=O)Nc1ccccc12 (centres unmarked) [Compound 8a]",
    "CATEGORY_LABEL": "1 (yes)"
  },
  {
    "COMPOUND": "CN1CC(c2ccccc2)C2(CC(=O)N(c3ccccc3)C2=O)C12C(=O)Nc1ccc(Cl)cc12 (centres unmarked) [Compound 8b]",
    "CATEGORY_LABEL": "0 (no)"
  },
  {
    "COMPOUND": "CN1CC(c2ccc(Cl)cc2)C2(CC(=O)N(c3ccc(Cl)cc3)C2=O)C12C(=O)Nc1ccccc12 (centres unmarked) [Compound 8j]",
    "CATEGORY_LABEL": "1 (yes)"
  },
  {
    "COMPOUND": "COc1ccc(C2CN(C)C3(C(=O)Nc4ccc(OC)cc43)C23CC(=O)N(c2ccccc2)C3=O)cc1 (centres unmarked) [Compound 8g]",
    "CATEGORY_LABEL": "0 (no)"
  }
]
